Provenance of the data: paper PMC6154586

Please go through the items and note down their IC50.
assay: in vitro cytotoxicity bioassay, HepG2; assay type: cell-based; details: human; HepG2

[ask] Field request: IC50 | item: C=C1[C@@]23C(=O)O[C@H](C)[C@]24O[C@@]2(C(=C)[C@]5(C=CC(=O)OC5(C)C)CC[C@]32C)[C@H](O)[C@@]1(C)OC4=O [Compound 8, dehydroaustinol]
[reply] > 50 µM

[ask] Also need C=C1[C@@]23C(=O)O[C@H](C)[C@]24O[C@@]2(C(=C)[C@]5(C=CC(=O)OC5(C)C)C[C@@H](OC(C)=O)[C@]32C)[C@H](OC(C)=O)[C@@]1(C)OC4=O [Compound 6, acetoxydehydroaustin] , thanks.
[reply] > 50 µM

[ask] Please do the same for `C=C1[C@@]23C(=O)O[C@H](C)[C@@]2(O)C(=O)O[C@]1(C)[C@@H](OC(C)=O)C1=C(C)[C@]2(C=CC(=O)OC2(C)C)CC[C@@]13C` as well.
[reply] > 50 µM

[ask] Try this compound next: `C=C1[C@@]2(C)CC3=C(C)[C@]4(C=CC(=O)OC4(C)C)CC[C@]3(C)[C@@]13C(=O)O[C@H](C)[C@@]3(O)C2=O`
[reply] > 50 µM

[ask] And then C=C1[C@@]23C(=O)O[C@H](C)[C@]24O[C@@]2(C(=C)[C@]5(C=CC(=O)OC5(C)C)CC[C@]32C)[C@H](OC(C)=O)[C@@]1(C)OC4=O [Compound 7, dehydroaustin] , what is it?
[reply] > 50 µM
